Where these numbers come from: paper PMC7031696

tested on: 3D7-MR4 trophozoite parasite-infected RBCs; experiment: Metabolomic profiling (hydrophilic metabolite changes, UHPLC-MS); format: cell-based, Plasmodium falciparum; settings: metabolite pantothenate
EXPERIMENTAL ENDPOINT: Log2(fold change) pantothenate

input: Form: Entry = Cl.c1ccc2c(NCCCCCCNc3c4c(nc5ccccc35)CCCC4)c3c(nc2c1)CCCC3 | System = 3D7-MR4 trophozoite parasite-infected RBCs | Log2(fold change) pantothenate = ____
output: 0.0969

input: Which Log2(fold change) pantothenate is reported with 3D7-MR4 trophozoite parasite-infected RBCs for this entry: CCN(CC)CCn1c(=N)n(CC(O)c2ccc(Cl)c(Cl)c2)c2ccccc21.Cl (stereo not shown) ?
output: 0.0000

input: Recall the recorded Log2(fold change) pantothenate for CN(C)Cc1ccc(-c2cc3c(-c4ccc(CN(C)C)cc4)ccnc3[nH]2)cc1.O=C(O)C(F)(F)F with 3D7-MR4 trophozoite parasite-infected RBCs and state it.
output: -0.1562

input: Notebook: pull reported Log2(fold change) pantothenate for 3D7-MR4 trophozoite parasite-infected RBCs, entry Clc1ccc2c(N3CCN(CCCN4CCN(c5ccnc6cc(Cl)ccc56)CC4)CC3)ccnc2c1 [Piperaquine, reference compound]
output: -0.1253

* * *

test system: 3D7-MR4 trophozoite parasite-infected RBCs; assay: Metabolomic profiling (hydrophilic metabolite changes, UHPLC-MS); format: cell-based, Plasmodium falciparum; details: metabolite UDP-D-glucuronate; log2 fold change
EXPERIMENTAL ENDPOINT: Log2(fold changes) UDP-D-glucuronate
When you answer, write just the number.

{"COMPOUND": "Cl.c1ccc2c(NCCCCCCNc3c4c(nc5ccccc35)CCCC4)c3c(nc2c1)CCCC3", "Log2(fold changes) UDP-D-glucuronate": 0.1434}

input: Which measured Log2(fold changes) UDP-D-glucuronate value corresponds to Cc1cc(Nc2ccc(S(F)(F)(F)(F)F)cc2)n2nc(C(C)(F)F)nc2n1 [DSM265, reference compound] ?
output: 0.0200

input: I'd like to know its Log2(fold changes) UDP-D-glucuronate. The compound in question is Clc1ccc2c(N3CCN(CCCN4CCN(c5ccnc6cc(Cl)ccc56)CC4)CC3)ccnc2c1 [Piperaquine, reference compound]
output: 0.0081

input: // lookup Log2(fold changes) UDP-D-glucuronate for CN(C)c1ccc2nc3ccc(=[N+](C)C)cc-3sc2c1 [Methylene blue, reference compound]
output: 0.0789

input: I have this compound here, CCCOCc1cc(CN2CCN(c3cccc(Cl)c3)CC2)c(O)c2ncccc12 , and I need its recorded Log2(fold changes) UDP-D-glucuronate.
output: -0.2169

input: For the compound CCN(CC)CCn1c(=N)n(CC(O)c2ccc(Cl)c(Cl)c2)c2ccccc21.Cl (centres unmarked) , what Log2(fold changes) UDP-D-glucuronate is on record?
output: -0.2918

input: Look up Log2(fold changes) UDP-D-glucuronate: Cc1ccc(Oc2ncccc2C(=O)Nc2cccc3cccnc23)c(C)c1
output: -0.1265

input: Please give the measured Log2(fold changes) UDP-D-glucuronate for this compound: CC(C)(C)c1ccc2c(c1)CN(Cc1ccc(Cl)cc1)CO2
output: 0.0275

* * *

tested on: 3D7-MR4 trophozoite parasite-infected RBCs; experiment: Metabolomic profiling (hydrophilic metabolite changes, UHPLC-MS); format: cell-based, Plasmodium falciparum; details: metabolite UMP; log2 fold change
Could you mark each record condition met if its Log2(fold changes) UMP falls strictly under -0.1, and condition not met if it equals or exceeds it?

Example results:
{"COMPOUND": "CN(C)Cc1ccc(-c2cc3c(-c4ccc(CN(C)C)cc4)ccnc3[nH]2)cc1.O=C(O)C(F)(F)F", "GROUP LABEL": "condition not met"}
{"COMPOUND": "O=C(Nc1ccsc1C(=O)NC1CCCCC1)c1ccc(F)cc1", "GROUP LABEL": "condition not met"}
{"COMPOUND": "CCCN(CCC)CC(O)COc1ccccc1C(=O)Nc1ccccc1 (stereo not drawn)", "GROUP LABEL": "condition met"}
{"COMPOUND": "CCN(CC)CCn1c(=N)n(CC(O)c2ccc(Cl)c(Cl)c2)c2ccccc21.Cl (stereo not drawn)", "GROUP LABEL": "condition met"}
{"COMPOUND": "CC(C)(C)OC(=O)N1CCN(c2ccccc2NC(=O)c2cccc(C(F)(F)F)c2Oc2ccc(F)cc2)CC1", "GROUP LABEL": "condition met"}
{"COMPOUND": "FC(F)(F)c1cccc(Nc2nc3ccccc3nc2Nc2cccc(C(F)(F)F)c2)c1", "GROUP LABEL": "condition met"}

input: Lab log: compare recorded Log2(fold changes) UMP with -0.1; is it strictly lower for Cl.c1ccc2c(NCCCCCCNc3c4c(nc5ccccc35)CCCC4)c3c(nc2c1)CCCC3 ?
output: condition not met

input: Take the compound CCCCN(CCCC)CC(O)c1cc(Cl)cc2c1-c1ccc(Cl)cc1/C2=C/c1ccc(Cl)cc1 (stereo not drawn) [Lumefantrine, reference compound] and say whether its Log2(fold changes) UMP is less than -0.1.
output: condition not met

input: Record COCCNCC(O)Cn1c2ccc(Cl)cc2c2cc(Cl)ccc21 (stereo not drawn) : is its Log2(fold changes) UMP strictly below -0.1?
output: condition met
